- Test system: HDAC4/5 (MEF2 reporter gene)
- protocol_details: HDAC subtype reporter gene assay, MEF-binding element (MEF2) luciferase in HeLa cells
- Type: cell-based
- conditions: Homo sapiens, M-HeLa, read-out: % of SAHA Response for HDAC4/5 at 10 μM (MEF2 reporter gene), 24 hours
quantity_measured: Emax at 10 µM (%)
Answer in %, number only, no unit symbol.

Worked cases, Emax at 10 µM given:
Nc1cc(F)ccc1NC(=O)CCCCNC(=O)c1cccc(/C=C2\C(=O)Nc3ccc(F)cc32)c1; 43
Nc1ccccc1NC(=O)CCCCCCCNC(=O)c1ccc(/C=N/N=C2\C(=O)Nc3ccc(F)cc32)cc1; 46
Nc1ccccc1NC(=O)CCCCNC(=O)c1cccc(/C=C2\C(=O)Nc3ccc(F)cc32)c1; 32
Cc1[nH]c(/C=N/N=C2\C(=O)Nc3ccc(F)cc32)c(C)c1C(=O)NCCCCC(=O)Nc1ccccc1N; 23
Cc1[nH]c(/C=N/N=C2\C(=O)Nc3ccc(F)cc32)c(C)c1C(=O)NCCCCCCCC(=O)Nc1ccc(F)cc1N; 37

Challenge: Can you look up the measured Emax at 10 µM of Nc1ccccc1NC(=O)CCCCCNC(=O)c1ccc(/C=N/N=C2\C(=O)Nc3ccc(F)cc32)cc1 for me?
Response given: 28

Challenge: Can you look up the measured Emax at 10 µM of O=C(CCCCCCC(=O)Nc1ccccc1)NO [SAHA, suberoylanilide hydroxamic acid, reference compound] for me?
Response given: 100

Challenge: Can you look up the measured Emax at 10 µM of Cc1[nH]c(/C=N/N=C2\C(=O)Nc3ccc(F)cc32)c(C)c1C(=O)NCCCCCC(=O)NO for me?
Response given: 27

Challenge: Can you look up the measured Emax at 10 µM of O=C(CCCCCNC(=O)c1ccc(/C=N/N=C2\C(=O)Nc3ccc(F)cc32)cc1)NO for me?
Response given: 30

Challenge: Can you look up the measured Emax at 10 µM of Cc1[nH]c(/C=N/N=C2\C(=O)Nc3ccc(F)cc32)c(C)c1C(=O)NCCCCC(=O)Nc1ccc(F)cc1N for me?
Response given: 23
